Let's look at some molecules and their measured inhibition.
Tested on: M18 aspartyl aminopeptidase (Plasmodium falciparum 3D7)
TEST_DETAILS: inhibition of P. falciparum M18 aminopeptidase – biochemical, QFRET, recombinant enzyme, primary screen (AID 1822);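 also: 0% = plate median of test compound wells and 100% = 2 mM ZnCl2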
CONDITION_DESCRIPTION: recombinant PfM18AAP, H-Glu-NHMec fluorogenic cleavage; at 7.35 µM; stronger effect = higher value
About 3,500 (1.2%) of roughly 290,000 compounds were called active. The sample as a whole holds a higher share of actives than the screen did.

{"LINE_NOTATION": "Clc1ccc(Cc2nn3c(-c4ccncc4)nnc3s2)cc1", "UNIT_OF_MEASUREMENT": "%", "inhibition": 8.22}
{"LINE_NOTATION": "O=C(NCc1ccncc1)C1CCN(C(=O)c2cccc(Cl)c2)CC1", "UNIT_OF_MEASUREMENT": "%", "inhibition": -1.77}
{"LINE_NOTATION": "Cc1cc(C)nc(N/N=C/c2c(C)oc3ccccc23)n1", "UNIT_OF_MEASUREMENT": "%", "inhibition": -6.94}
{"LINE_NOTATION": "O=C(CCN1CCN(C/C=C/c2ccccc2)CC1)Nc1ccccc1Cl", "UNIT_OF_MEASUREMENT": "%", "inhibition": -14.5}
{"LINE_NOTATION": "Cc1ccc(S(=O)(=O)NNC(=O)Nc2cccc3ccccc23)cc1", "UNIT_OF_MEASUREMENT": "%", "inhibition": 10.5}
{"LINE_NOTATION": "COc1ccc(CCNC(=O)CCNS(=O)(=O)c2cc(Br)cnc2N)cc1OC", "UNIT_OF_MEASUREMENT": "%", "inhibition": -9.76}
{"LINE_NOTATION": "Cc1nc(Cl)cc(N/N=C/c2ccccc2)n1", "UNIT_OF_MEASUREMENT": "%", "inhibition": 1.31}
{"LINE_NOTATION": "Cc1ccc(OCC(=O)Nc2ccc(C(=O)O)cc2NC(=O)COc2ccc(C)c(C)c2)cc1C", "UNIT_OF_MEASUREMENT": "%", "inhibition": 0.26}
{"LINE_NOTATION": "Cc1ccc(S(=O)(=O)NNC(=O)/C=C/c2cccc(F)c2)cc1", "UNIT_OF_MEASUREMENT": "%", "inhibition": 12.8}
{"LINE_NOTATION": "CCOc1ccc(S(=O)(=O)N2CCN=C2Cc2ccccc2)cc1C", "UNIT_OF_MEASUREMENT": "%", "inhibition": -0.06}
{"LINE_NOTATION": "Cc1ccc(C)c(NC(=O)NNC(=O)c2ccc3ccccc3c2O)c1", "UNIT_OF_MEASUREMENT": "%", "inhibition": 41}

---

Reported inhibition values are given for each entry in this list.
Test system: M18 aspartyl aminopeptidase (Plasmodium falciparum 3D7)
TEST_DETAILS: inhibition of P. falciparum M18 aminopeptidase – biochemical, QFRET, recombinant enzyme, primary screen (AID 1822);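 also: 0% = plate median of test compound wells and 100% = 2 mM ZnCl2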
CONDITION_DESCRIPTION: recombinant PfM18AAP, H-Glu-NHMec fluorogenic cleavage; at 7.35 µM; stronger effect = higher value
Hit rate of the full screen: of about 290,000 compounds, about 3,500 (1.2%) were called active. Only a selection was taken, and actives are over-represented in it overall.
MEASURED_PARAMETER: inhibition (%)

{"COMPOUND": "COc1ccc2oc(=O)cc(-c3cc4ccccc4o3)c2c1", "MEASURED_PARAMETER": "inhibition", "ASSAY_VALUE": 21.1}
{"COMPOUND": "Nn1cnnc1N/N=C/c1cc([N+](=O)[O-])c(Cl)cc1Cl", "MEASURED_PARAMETER": "inhibition", "ASSAY_VALUE": 30}
{"COMPOUND": "O=C(Nc1ccc(F)cc1)C1CCCN(S(=O)(=O)c2ccc(-n3cnnn3)cc2)C1 (stereo unspecified)", "MEASURED_PARAMETER": "inhibition", "ASSAY_VALUE": -11.3}
{"COMPOUND": "O=[N+]([O-])c1ccc(O)c(/C=N/Nc2ccccc2[N+](=O)[O-])c1", "MEASURED_PARAMETER": "inhibition", "ASSAY_VALUE": -13}
{"COMPOUND": "O=c1c2cc(-c3ccccc3)sc2nc2n1N=C(c1cccs1)CS2", "MEASURED_PARAMETER": "inhibition", "ASSAY_VALUE": 6.06}
{"COMPOUND": "CSCC[C@H](NC(=O)N1CCn2c1nc1ccccc12)C(=O)NC1CCCCC1", "MEASURED_PARAMETER": "inhibition", "ASSAY_VALUE": 2.15}
{"COMPOUND": "S=C(Nc1cccnc1)Nc1ccccn1", "MEASURED_PARAMETER": "inhibition", "ASSAY_VALUE": 11.1}
{"COMPOUND": "Cc1ccc(CNC(=O)c2c(-c3ccccc3)noc2C)cc1", "MEASURED_PARAMETER": "inhibition", "ASSAY_VALUE": 12.7}
{"COMPOUND": "Cn1cc[n+](C)c1COc1ccc(C=O)cc1", "MEASURED_PARAMETER": "inhibition", "ASSAY_VALUE": -14}
{"COMPOUND": "CC(=O)Nc1cccc(C(=O)OCN2C(=O)c3ccccc3C2=O)c1", "MEASURED_PARAMETER": "inhibition", "ASSAY_VALUE": 1.1}
{"COMPOUND": "O=C(O)CC(CC(=O)N1CCOCC1)c1ccccc1 (stereo unspecified)", "MEASURED_PARAMETER": "inhibition", "ASSAY_VALUE": -1.93}

Entry source: PubChem BioAssay AID1822
